Test system: HepaRG spheroids
experimental protocol: Combined HCI (HCS) and cellular ATP 3D assay in HepaRG spheroids
measurement conditions: HepaRG; HCS endpoints; cut-off <25x Avg Cmax
quantity: HepaRG <25x Avg Cmax HCS

>>> print(df.to_string())
                                   compound  result
0  CN(C)CCC(c1ccc(Cl)cc1)c1ccccn1 (stereo not shown)     -ve
1     CN1CCN(C2=Nc3cc(Cl)ccc3Nc3ccccc32)CC1     +ve
2                     CC(=O)Oc1ccccc1C(=O)O     +ve
3  CC/C(=C(\c1ccccc1)c1ccc(OCCN(C)C)cc1)c1ccccc1     +ve

// sample `CC(=O)Nc1ccc(O)cc1` , its HepaRG <25x Avg Cmax HCS was +ve

// sample Cc1c(-c2ccccc2)oc2c(C(=O)OCCN3CCCCC3)cccc2c1=O [flavoxate] , its HepaRG <25x Avg Cmax HCS was -ve

// sample CCOC(=O)c1ncn2c1CN(C)C(=O)c1cc(F)ccc1-2 [flumazenil, reference compound] , its HepaRG <25x Avg Cmax HCS was -ve

// sample CCc1ccc(CCOc2ccc(CC3SC(=O)NC3=O)cc2)nc1 (stereo not shown) [pioglitazone, reference compound] , its HepaRG <25x Avg Cmax HCS was +ve

// sample NC(=O)N1c2ccccc2C=Cc2ccccc21 [carbamazepine, reference compound] , its HepaRG <25x Avg Cmax HCS was +ve

// sample C[N+](C)(C)CC(=O)O [betaine, reference compound] , its HepaRG <25x Avg Cmax HCS was -ve

// sample `O=C1CN(/N=C/c2ccc(-c3ccc([N+](=O)[O-])cc3)o2)C(O)=N1` , its HepaRG <25x Avg Cmax HCS was +ve

// sample NNC(=O)c1ccncc1 [isoniazid, reference compound] , its HepaRG <25x Avg Cmax HCS was -ve

// sample `CN(C)C(=N)N=C(N)N` , its HepaRG <25x Avg Cmax HCS was -ve

----------
experimental protocol: Plasma free fraction (fu) and unbound Cmax (Cmax,u)
Format: in vitro ADME, human
measurement conditions: unbound plasma Cmax
quantity: Human plasma Cmax,u (nM)
Respond with the bare value in nM.

These solved cases illustrate the format of a correct answer.
molecule	quantity	uom	numeric readout
O=c1[nH]c(=O)n([C@@H]2O[C@H](CO)[C@@H](O)[C@@H]2F)cc1I	Human plasma Cmax,u	nM	295
CC[C@H]1OC(=O)[C@H](C)[C@@H](O[C@H]2C[C@@](C)(OC)[C@@H](O)[C@H](C)O2)[C@H](C)[C@@H](O[C@@H]2O[C@H](C)C[C@H](N(C)C)[C@H]2O)[C@](C)(O)C[C@@H](C)C(=O)[C@H](C)[C@@H](O)[C@]1(C)O	Human plasma Cmax,u	nM	620
O=C1CN(/N=C/c2ccc([N+](=O)[O-])o2)C(=O)N1 [nitrofurantoin, reference compound]	Human plasma Cmax,u	nM	6508
CNC1(C)C2CCC(C2)C1(C)C (centres unmarked)	Human plasma Cmax,u	nM	85
CCOC(=O)CN[C@@H](C(=O)N1CC[C@H]1C(=O)NCc1ccc(/C(N)=N\O)cc1)C1CCCCC1	Human plasma Cmax,u	nM	80
CN(C)CCC(c1ccc(Cl)cc1)c1ccccn1 (centres unmarked)	Human plasma Cmax,u	nM	101

// sample `COc1ccc2c(c1)c(CC(=O)O)c(C)n2C(=O)c1ccc(Cl)cc1` , its Human plasma Cmax,u was 84

// sample CCOC(=O)c1ncn2c1CN(C)C(=O)c1cc(F)ccc1-2 [flumazenil, reference compound] , its Human plasma Cmax,u was 650

// sample `Cn1cnc([N+](=O)[O-])c1Sc1ncnc2nc[nH]c12` , its Human plasma Cmax,u was 5048

// sample CCN(CC)CC#CCOC(=O)C(O)(c1ccccc1)C1CCCCC1 (centres unmarked) , its Human plasma Cmax,u was 1

// sample `CC(=O)Nc1ccc(O)cc1` , its Human plasma Cmax,u was 139840
